Just for reference, patent US20220242939A1 is where these values come from.

Target: T1, G200 N-terminal neo-epitope peptide GQPLQE-Acp-C (SEQ ID NO:50) conjugated to BSA (human, not fully specified (residue 8); printed as GQPLQE-Acp-C; also: C-terminal Cys conjugated to BSA carrier)
T1 construct: also called G200-BSA peptide; G200-peptide
T1 peptide: GQPLQE[Ahx]C
Experiment: second direct ELISA, G200-BSA peptide coated at 1 µg/ml
Non-standard residues stand in square brackets, D forms with d. No end group written: not given here. Ahx = NCCCCCC(=O)O

binder: 28F2, recombinant IgG2c antibody (antibody, V domains shown) VH: QIQLVQSGPDLKKPGETVKISCKASGYTFTNYAMHWMKQAPGKALKWMGWINTYTGEPTFADDFKGRFAFSLETSASTAYLQINSLKNEDMATYFCAREGYYDRSHYFDYWGQGTTLTVSS VL: DVLMTQTPLSLPVSLGDQASISCRSSLSLVHGDGNTYLEWYLQKPGQSPKLLIYKVSNRFSGVPDRFSGSGSGTDFTLKISRVEAEDLGVYYCLQGSHIPFTFGSGTKLEIK
scale_unit: µg/mL
EC50: 0.0072
--
binder: 7C7, recombinant IgG2c antibody (antibody, V domains shown) VH: EVQLVESGGGLVKPGGSLRLSCAASGFTFSSFAMSWVRQSPERRLEWVAEISRGGGYAFYSDTVTGRFTISRDNARNTLFLEMGSLRSEDTAMYYCSRQLTGTDYYAMDYWGQGTSVTVSS VL: DVLLTQTPLSLFVSLGDQASISCRSSQSIVYTNGNTYLEWYLQKPGQSPKLLIYKVSNRFSGVPDRFSGSGSGTDFTLKISRVEAEDLGVYYCFQGSQVPYTFGGGTKLELK
scale_unit: µg/mL
EC50: 0.013
--
binder: 23D5, recombinant IgG2c antibody (antibody, V domains shown) VH: EVQLVESGGGLVKPGGSLKLSCSASGFTFSRYAMSWVRQSPEKRLEWVAEINSGGSYSFYSDTVTGRFTISRDNAKNTLFLEMSSLRSEDTAIYYCARQLSGTDYYGTDYWGQGTSVTVSS VL: DVLMTQTPLSLPVSHGDQASISCRSSQSLLYSNGNTYLEWYLQKPGQSPKLLIYKVSNRFSGVPDRFSGSGSGTDFTLKISRVEAEDLGVYYCFQGSHVPYTFGGGTKLEIK
scale_unit: µg/mL
EC50: 0.0116
